Every entry's value here was drawn from ChEMBL document CHEMBL5505979.

- System: Escherichia coli
- TEST_PROTOCOL: Anti-bacterial activity against Escherichia coli ATCC 25922 assessed as inhibition of bacterial growth
- Format: functional
Quick reference: MIC of the listed items.
Quick note: unit goes after the number.

Kindly note the recorded MIC for CCCCc1nc(Cl)c(C2NC(=O)NC(CN3CCN(C(=O)/C(=N/OC)c4csc(N)n4)CC3)=C2C(=O)OCC)[nH]1 (stereo unspecified) , which is 7 µM

Per the record, CCn1cc(C(=O)O)c(=O)c2cc(F)c(N3CCNCC3)cc21 has MIC of 13 µM

Note to self: MIC recorded for CCOC(=O)C1=C(CN2CCN(C(=O)/C(=N/OC)c3csc(N)n3)CC2)NC(=O)NC1c1nccs1 (stereo unspecified) was 60 µM

###

- Tested on: Pseudomonas aeruginosa
- TEST_PROTOCOL: Anti-bacterial activity against Pseudomonas aeruginosa ST235 assessed as inhibition of bacterial growth
- Assay type: functional
- STATED_CONDITIONS: Pseudomonas aeruginosa, ST235; read-out: MIC
VALUE_KIND: MIC (µM)
Output spec: scalar in µM, unitless text.

COMPOUND	UNITS_TEXT	MEASURED
CCCCc1nc(Cl)c(C2NC(=O)NC(CN3CCN(C(=O)/C(=N/OC)c4csc(N)n4)CC3)=C2C(=O)OCC)[nH]1 (centres undefined)	µM	26
CCCCc1nc(Cl)c(C2NC(=O)NC(CN3CCN(CC(=O)c4ccc(F)cc4)CC3)=C2C(=O)OCC)[nH]1 (centres undefined)	µM	57
CCn1cc(C(=O)O)c(=O)c2cc(F)c(N3CCNCC3)cc21 [NORFLOXACIN]	µM	6

Let's switch to this compound now.
Quick note, MIC for CCOC(=O)C1=C(CN2CCN(C(=O)/C(=N/OC)c3csc(N)n3)CC2)NC(=O)NC1c1ccc(F)cc1 (centres undefined) landed at 117

###

Readings of MIC for the listed compounds
- Test system: Candida tropicalis
- TEST_PROTOCOL: Anti-fungal activity against Candida tropicalis assessed as inhibition of fungal growth
- Format: functional
- STATED_CONDITIONS: Candida tropicalis; read-out: MIC
Report field: quantity (unit follows the number).

COMPOUND	MIC
CCOC(=O)C1=C(CN2CCN(C(=O)/C(=N/OC)c3csc(N)n3)CC2)NC(=O)NC1c1cccs1 (centres undefined)	480 µM
CCOC(=O)C1=C(CN2CCN(C(=O)/C(=N/OC)c3csc(N)n3)CC2)NC(=O)NC1c1ccc(F)cc1 (centres undefined)	447 µM
CCOC(=O)C1=C(CN2CCN(C(=O)/C(=N/OC)c3csc(N)n3)CC2)NC(=O)NC1c1ccc(O)c(Br)c1 (centres undefined)	415 µM
CCCCc1nc(Cl)c(C2NC(=O)NC(CN3CCN(CC(=O)c4ccc(C)cc4)CC3)=C2C(=O)OCC)[nH]1 (centres undefined)	460 µM
CCOC(=O)C1=C(CN2CCN(C(=O)/C(=N/OC)c3csc(N)n3)CC2)NC(=O)NC1c1nccs1 (centres undefined)	60 µM

Given item CCCCc1nc(Cl)c(C2NC(=O)NC(CN3CCN(CC(=O)c4ccc(Cl)cc4)CC3)=C2C(=O)OCC)[nH]1 (centres undefined) , the value recorded as its MIC is 444 µM

The compound listed as CCOC(=O)C1=C(CN2CCN(C(=O)/C(=N/OC)c3csc(N)n3)CC2)NC(=O)NC1c1ccc(OC)cc1 (centres undefined) shows MIC equal to 470 µM

Summary for this compound, CCOC(=O)C1=C(CN2CCN(C(=O)/C(=N/OC)c3csc(N)n3)CC2)NC(=O)NC1c1ccc(C(F)(F)F)cc1 (centres undefined) : MIC is 430 µM

Looking up CCOC(=O)C1=C(CN2CCNCC2)NC(=O)NC1c1ccc2c(c1)c1ccccc1n2CC (centres undefined) , I see its MIC listed as 470 µM

###

Catalogue of MIC readings, one per entry.
- System: Candida albicans
- TEST_PROTOCOL: Anti-fungal activity against Candida albicans assessed as inhibition of fungal growth
- Assay type: functional
- STATED_CONDITIONS: Candida albicans; read-out: MIC
Answer by giving the amount and then stating its unit.

Past entries and their recorded results:
MOLECULE	MIC
CCCCc1nc(Cl)c(C2NC(=O)NC(CN3CCN(CC(=O)c4ccccc4)CC3)=C2C(=O)OCC)[nH]1 (stereo not given)	472 µM
CCOC(=O)C1=C(CN2CCN(C(=O)/C(=N/OC)c3csc(N)n3)CC2)NC(=O)NC1c1ccc(C(F)(F)F)cc1 (stereo not given)	430 µM

Notebook: CCOC(=O)C1=C(CN2CCNCC2)NC(=O)NC1c1ccc2c(c1)c1ccccc1n2CC (stereo not given) , MIC read as 470 µM

# molecule CCOC(=O)C1=C(CN2CCN(C(=O)/C(=N/OC)c3csc(N)n3)CC2)NC(=O)NC1c1nccs1 (stereo not given) ; its MIC = 479 µM

Value of measured MIC for the entry CCOC(=O)C1=C(CN2CCN(C(=O)/C(=N/OC)c3csc(N)n3)CC2)NC(=O)NC1c1ccc(OC)c(OC)c1OC (stereo not given) : 398 µM

###

- System: Escherichia coli
- TEST_PROTOCOL: Anti-bacterial activity against Escherichia coli ATCC 25922 assessed as inhibition of bacterial growth
- Type: functional
Entries and their MIC
Give just the numeric value; µM need not be written.

Before answering, review these 3 worked examples.
COMPOUND	MEASURED
CCOC(=O)C1=C(CN2CCN(C(=O)/C(=N/OC)c3csc(N)n3)CC2)NC(=O)NC1c1ccc(N(C)C)cc1 (stereo not drawn)	225
CCCCc1nc(Cl)c(C2NC(=O)NC(CN3CCN(CC(=O)c4ccc(C)cc4)CC3)=C2C(=O)OCC)[nH]1 (stereo not drawn)	115
CCOC(=O)C1=C(CN2CCN(C(=O)/C(=N/OC)c3csc(N)n3)CC2)NC(=O)NC1c1ccc(OC)c(OC)c1OC (stereo not drawn)	52

Form field MIC for item CCOC(=O)C1=C(CN2CCN(C(=O)/C(=N/OC)c3csc(N)n3)CC2)NC(=O)NC1c1ccc(F)cc1 (stereo not drawn) on Escherichia coli: 59

MIC value, target or system Escherichia coli, for CCCCc1nc(Cl)c(C2NC(=O)NC(CN3CCN(CC(=O)c4nccs4)CC3)=C2C(=O)OCC)[nH]1 (stereo not drawn) : 58

Field MIC (system: Escherichia coli) for entry CCOC(=O)C1=C(CN2CCN(C(=O)/C(=N/OC)c3csc(N)n3)CC2)NC(=O)NC1c1ccc(OC)cc1 (stereo not drawn) = 230

// MIC (Escherichia coli) for CCOC(=O)C1=C(CN2CCN(C(=O)/C(=N/OC)c3csc(N)n3)CC2)NC(=O)NC1c1ccc(F)cc1F (stereo not drawn) = 57

Hey, Escherichia coli data for CCCCc1nc(Cl)c(C2NC(=O)NC(CN3CCN(CC(=O)c4ccccc4)CC3)=C2C(=O)OCC)[nH]1 (stereo not drawn) : MIC came out at 59

###

- System: Escherichia coli
- TEST_PROTOCOL: Anti-bacterial activity against Escherichia coli ATCC 25922 assessed as inhibition of bacterial growth
- Assay type: functional
VALUE_KIND: MIC (µM)
Numeric answer only, unit µM assumed.

Input CCOC(=O)C1=C(CN2CCN(C(=O)/C(=N/OC)c3csc(N)n3)CC2)NC(=O)NC1c1cccs1 (stereo not given) . Output MIC: 240

Reported MIC of CCCCc1nc(Cl)c(C2NC(=O)NC(CN3CCN(CC(=O)c4ccc(F)cc4)CC3)=C2C(=O)OCC)[nH]1 (stereo not given) : 114

###

Entries annotated with measured MIC
- System: Escherichia coli
- TEST_PROTOCOL: Anti-bacterial activity against Escherichia coli ATCC 25922 assessed as inhibition of bacterial growth
- Assay type: functional
Numeric answer only, unit µM assumed.

Recorded MIC, per entry:
COMPOUND	ASSAYED_TARGET	UNITS_TEXT	MEASURED
CCOC(=O)C1=C(CN2CCN(C(=O)/C(=N/OC)c3csc(N)n3)CC2)NC(=O)NC1c1ccc(C(F)(F)F)cc1 (stereo not drawn)	Escherichia coli	µM	27
CCOC(=O)C1=C(CN2CCN(C(=O)/C(=N/OC)c3csc(N)n3)CC2)NC(=O)NC1c1ccc(O)c(OC)c1 (stereo not drawn)	Escherichia coli	µM	48

Now for the compound whose MIC we want.
With Escherichia coli as the test system, CCOC(=O)C1=C(CN2CCN(C(=O)/C(=N/OC)c3csc(N)n3)CC2)NC(=O)NC1c1ccc(C#N)cc1 (stereo not drawn) showed MIC of 29
